Target: human recombinant MAOB (Homo sapiens, UniProt P27338)
Sequence (P27338 whole entry): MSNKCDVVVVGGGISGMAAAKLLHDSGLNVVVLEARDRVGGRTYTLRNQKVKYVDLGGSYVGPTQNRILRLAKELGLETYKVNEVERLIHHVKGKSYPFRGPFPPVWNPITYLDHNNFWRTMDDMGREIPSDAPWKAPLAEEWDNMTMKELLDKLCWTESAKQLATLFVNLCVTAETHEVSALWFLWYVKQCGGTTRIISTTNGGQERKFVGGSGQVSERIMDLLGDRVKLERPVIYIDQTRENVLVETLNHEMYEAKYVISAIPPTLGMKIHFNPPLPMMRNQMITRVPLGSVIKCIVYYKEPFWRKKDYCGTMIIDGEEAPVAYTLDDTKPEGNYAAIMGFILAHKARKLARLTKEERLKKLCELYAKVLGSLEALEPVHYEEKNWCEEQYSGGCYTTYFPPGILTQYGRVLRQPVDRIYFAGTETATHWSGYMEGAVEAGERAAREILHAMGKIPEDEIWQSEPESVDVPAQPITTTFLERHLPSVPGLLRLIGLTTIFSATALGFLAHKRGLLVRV
Assay: biochemical
Settings: mean ± SD; 2 h exposure; read-out: IC50 (EC50) hMAOB
Protocol: The title compounds were tested for hMAOB activities by an in vitro method. The examined compounds were evaluated for possible inhibitory capacity on human recombinant MAOA and MAOB enzymes by using the Amplex UltraRed (Sigma Aldrih and Acros, Merck KGaA, Darmstadt, Germany) reagent with some modifications. […] The fluorescence was measured every 30 min until 150 min, in dark, while shaking the reaction mixture at constant temperature of 37 °C. […]
reported_property: pIC50
Here pIC50 is given on a logarithmic scale as minus log10 of the concentration in mol/L.

| molecule | tested_on | pIC50 |
| --- | --- | --- |
| CCOC(=O)c1cc(-c2ccc(Br)cc2)n(C(C(=O)N/N=C/c2ccc(Cl)cc2)C(C)C)c1C (centres unmarked) [vh1] | human recombinant MAOB (Homo sapiens, UniProt P27338) | 6.13 |

Here's the next entry for you.
Any idea what pIC50 was measured for CCOC(=O)c1cc(-c2ccc(Br)cc2)n(C(C(=O)NN)C(C)C)c1C (centres unmarked) [vh0] ?
6.18

* * *

Target: human recombinant MAOB (Homo sapiens)
Assay: biochemical
Format: biochemical
reported_property: SI: hMAOB selectivity index = IC50(hMAO-A)/IC50(hMAO-B)

| compound | result |
| --- | --- |
| CCOC(=O)c1cc(-c2ccc(Br)cc2)n(C(C(=O)NN)C(C)C)c1C (centres unmarked) | >150 |
| CCOC(=O)c1cc(-c2ccc(Br)cc2)n(C(C(=O)N/N=C/c2ccc(OC)cc2OC)C(C)C)c1C (centres unmarked) | >1 |
| CCOC(=O)c1cc(-c2ccc(Br)cc2)n(C(C(=O)N/N=C/c2ccc(OC)cc2)C(C)C)c1C (centres unmarked) | >1 |

Which value of SI: hMAOB selectivity index = IC50(hMAO-A)/IC50(hMAO-B) has been reported for CCOC(=O)c1cc(-c2ccc(Br)cc2)n(C(C(=O)N/N=C/c2cccc(F)c2)C(C)C)c1C (centres unmarked) in the records?
>1

Which SI: hMAOB selectivity index = IC50(hMAO-A)/IC50(hMAO-B) is reported for this compound? CCOC(=O)c1cc(-c2ccc(Br)cc2)n(C(C(=O)N/N=C/c2ccc(Cl)cc2)C(C)C)c1C (centres unmarked)
>134

* * *

Target: human recombinant MAOB (Homo sapiens, UniProt P27338)
Test: biochemical
Conditions: mean ± SD; 2 h exposure; read-out: IC50 (EC50) hMAOB
reported_property: IC50

Would you please look over these solved cases?
| compound | IC50 |
| --- | --- |
| CCOC(=O)c1cc(-c2ccc(Br)cc2)n(C(C(=O)N/N=C/c2ccc(OC)cc2OC)C(C)C)c1C (stereo not drawn) [vh4] | > 100 µM |
| CCOC(=O)c1cc(-c2ccc(Br)cc2)n(C(C(=O)N/N=C/c2cccc(F)c2)C(C)C)c1C (stereo not drawn) [vh2] | > 100 µM |

Would you kindly look at the next entry?
Param item = CCOC(=O)c1cc(-c2ccc(Br)cc2)n(C(C(=O)N/N=C/c2ccc(OC)cc2)C(C)C)c1C (stereo not drawn) [vh3] ; retrieve measured IC50.
> 100 µM
